# tgt: RSV N-RNA complex (Human respiratory syncytial virus A, UniProt P03418)
# Construct: Full-length N was produced by co-expression with the C-terminal domain of RSV P protein in E. coli BL21(DE3); made in house; host or cells: E. coli BL21(DE3), co-transformed with pET-N and pGEX-P(161–241)
# Sequence (P03418 whole entry, looked up, the tested form may be a part, one chain of several): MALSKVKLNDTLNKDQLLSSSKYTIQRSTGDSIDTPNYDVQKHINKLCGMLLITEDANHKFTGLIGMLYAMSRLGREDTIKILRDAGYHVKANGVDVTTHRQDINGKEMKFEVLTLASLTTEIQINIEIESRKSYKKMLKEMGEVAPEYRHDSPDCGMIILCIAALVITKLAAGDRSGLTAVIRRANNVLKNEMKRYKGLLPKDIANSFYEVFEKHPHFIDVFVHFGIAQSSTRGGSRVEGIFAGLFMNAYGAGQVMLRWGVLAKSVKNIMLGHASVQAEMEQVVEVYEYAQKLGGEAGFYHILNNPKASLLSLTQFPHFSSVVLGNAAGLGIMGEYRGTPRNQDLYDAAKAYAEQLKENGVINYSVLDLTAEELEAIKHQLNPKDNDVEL
# test: Fluorescence polarization inhibition of N-RNA binding to fluorescent probes
# measurement context: fluorescent probe F7E 200 nM, 10 µM N-RNA, Tris pH 8 without salt; read-out: IC50
assay metric: IC50 (µM)
Give a bare numeral; the unit µM is implied.

If you can, please state the reported IC50 value of "O=C(O)c1cc(C(=O)O)n(Cc2ccc(Cl)cc2Cl)n1" . 48

====

# tgt: RSV N-RNA complex (Human respiratory syncytial virus A, UniProt P03418)
# Construct: Full-length N was produced by co-expression with the C-terminal domain of RSV P protein in E. coli BL21(DE3); made in house; host or cells: E. coli BL21(DE3), co-transformed with pET-N and pGEX-P(161–241)
# test: Fluorescence polarization inhibition of N-RNA binding to fluorescent probes
# measurement context: fluorescent probe fluorescein 1, 20 µM N-RNA; from IC50 and Kd; read-out: M76 Ki
assay metric: Ki (µM)
Give a bare numeral; the unit µM is implied.

If you can, please state the reported Ki value of O=C(O)c1cc(C(=O)O)n(Cc2ccc(Cl)cc2Cl)n1 [M76] . 13

====

# tgt: RSV N-RNA complex (Human respiratory syncytial virus A, UniProt P03418)
# Construct: Full-length N was produced by co-expression with the C-terminal domain of RSV P protein in E. coli BL21(DE3); made in house; host or cells: E. coli BL21(DE3), co-transformed with pET-N and pGEX-P(161–241)
# test: biochemical
# Assay type: binding
# measurement context: apparent Kd, fluorescent molecules 200 nM, Tris pH 8 without salt; calculated assuming FPmax = 500 mFP
For each entry below, report its Kd value.

If you can, please state the reported Kd value of COC(=O)c1ccccc1-c1c2ccc(=O)cc-2oc2cc(O)ccc12 [Fluorescein methyl ester 2, fluorescein methyl ester] . 200 µM

Same read-out for Cc1cc(C)n2c1C=C1C=CC(CCC(=O)O)=[N+]1[B-]2(F)F [4,4′ difluoro BODIPY FL 4, 4,4′ difluoro BODIPY FL] ? 870 µM

Same read-out for O=C(O)c1ccccc1-c1c2ccc(=O)cc-2oc2cc(O)ccc12 [Fluorescein 1, Fluorescein] ? 91 µM

Same read-out for CCOC(=O)c1ccccc1-c1c2ccc(=O)cc-2oc2cc(O)ccc12 [Fluorescein ethyl ester 3, fluorescein ethyl ester] ? 250 µM
